Residues, ends and D or L forms follow the SMILES beside them. *: point of attachment. Cbz = O=C(OCc1ccccc1)*
recorded-endpoint: melting point

INSERT INTO results (molecule, obs_value) VALUES
  ('CC1=C(C(=O)CS(=O)(=O)NC(C)C)C(c2cccc([N+](=O)[O-])c2)C(C(=O)OCCO)=C(C)N1 (centres undefined)', '185 to 188 °C'),
  ('CC1(C)C(N)CN1c1nc2c(cc1F)c(=O)c(C(=O)O)cn2C1CC1 (centres undefined)', '190 to 195 °C'),
  ('c1ccc2c(c1)CCN(c1ccncc1)C2', '95 to 96 °C'),
  ('CCCCCCCCCCNc1nc(NCC(O)C2CC(C)(C)NC(C)(C)C2)nc(NCC(O)C2CC(C)(C)NC(C)(C)C2)n1 (centres undefined)', '106 to 107 °C'),
  ('Cc1cccc(C(=O)NC(CC(C)C)C(=O)O)c1SSc1c(C)cccc1C(=O)NC(CC(C)C)C(=O)O (centres undefined)', '210 to 211 °C');

Q: Consider the molecule CCc1ccn(-c2ccc(S(C)(=O)=O)cc2)c1-c1ccc(F)cc1 and give its measured melting point.
Result: 107 to 108 °C

Q: Again, but for COC(=O)C(Cc1ccccc1)NC(=O)C(CC(N)=O)NC(=O)OCc1ccccc1 (stereo not drawn) (Cbz-Asn-Phe-OMe; configuration not given here)
Result: 196 to 197 °C

Q: Again, but for COc1cc([N+](=O)[O-])c2nccc(C)c2c1OC
Result: 123 to 125 °C

Q: Again, but for COc1ccc2cc(C(N)=O)c(N)nc2c1OC
Result: 218 to 219 °C

Q: Again, but for O=C1CC2Cc3ccccc3C2N1 (centres undefined)
Result: 150 to 153 °C

----------
Measured melting point, listed per entry.

INSERT INTO measurements (chemical_structure, recorded_endpoint, obs_value) VALUES
  ('CC(C)(C)c1cc(N2CCCCC2=O)cc(C(C)(C)C)c1O', 'melting point', '212 to 214 °C'),
  ('CCOC(=O)CC(=O)c1cc(F)c(Br)c(F)c1F', 'melting point', '51 to 59 °C'),
  ('OCCCc1oc(-n2cccn2)nc1-c1ccc(Cl)cc1', 'melting point', '75 to 76 °C'),
  ('O/N=C(\CCN1CCN(c2ccccn2)CC1)c1ccc(Cl)cc1', 'melting point', '188 to 190 °C');

Q: Consider the compound CCCc1cc(C=CC(=O)c2ccc(O)cc2)c(OC)cc1O and give its measured melting point.
Result: 126 to 128 °C

Q: Again, but for Nc1nc2ccc3ccc(CNc4ccc(F)cc4)cc3c2c(=O)[nH]1
Result: > 230 °C

Q: Again, but for O=C1CCC(c2ccc(F)c(F)c2)CC1
Result: 61 °C

Q: Again, but for COCC(=O)N(C)c1ccc(NC(=O)[C@H]2C[C@@H](O)CN2C(=O)Nc2ccc(Cl)cc2)cc1
Result: 84 °C

Q: Again, but for COC(=O)c1ccc(OC2=C(Oc3ccc(C(=O)OC)cc3)C(F)(F)C(F)(F)C2(F)F)cc1
Result: 67 °C

Q: Again, but for O=C(NC1CCCCC1)OC1CCCCC1
Result: 77 to 78 °C

Q: Again, but for CC#CNC(=O)NC(=NC(=O)NCCCCCCCC)SC
Result: 123 to 125 °C

----------
Measured melting point, listed per entry.

INSERT INTO measurements (molecule, recorded_endpoint, obs_value) VALUES
  ('Cc1cncc(CNC(=O)c2sc(N3CCN(CCCC(F)(F)F)C3=O)nc2C)n1', 'melting point', '123 °C'),
  ('CC1(C)OCC(C)(C)c2cc(OS(C)(=O)=O)ccc2O1', 'melting point', '65 to 67 °C'),
  ('C=C1CC(C(=O)O)NC(C(=O)O)C1 (stereo unspecified)', 'melting point', '> 250 °C'),
  ('CC(C)(C)OC(=O)Nc1ccc(-c2cccc(F)c2)cc1[N+](=O)[O-]', 'melting point', '93 to 96 °C'),
  ('CCCCCCCCCCCCCCOc1ccc(CBr)cc1CBr', 'melting point', '62.9 °C'),
  ('CC1(C)CCC(Cc2ccc(Cl)cc2)C1(O)COS(C)(=O)=O (stereo unspecified)', 'melting point', '113 to 114 °C'),
  ('CCCCCCCCCCC(O)C(=O)N[C@@H](CCCC)CCC(=O)O (stereo partly specified)', 'melting point', '53 to 55 °C'),
  ('N#Cc1ncn2c1[C@@H]1CCCN1C(=O)c1c(Br)cccc1-2', 'melting point', '253 to 254 °C'),
  ('COc1cccc(Sc2ccnc(Nc3ccc(N4CCOCC4)cc3)n2)c1', 'melting point', '159 to 161 °C'),
  ('COC(=O)c1ccc(CN2N=C(C(C)(C)C)CC2=O)cc1', 'melting point', '161 to 162 °C');

Q: Consider the molecule CC(C)(C)C(=O)c1c[nH]c2ncc(-c3cccc(NC4CCCC4O)c3)nc12 (stereo unspecified) and give its measured melting point.
Result: 178 to 180 °C

Q: Again, but for CC(=O)Oc1cc(/C=C/c2ccccc2)cc(OC(C)=O)c1
Result: 90 to 90.5 °C

Q: Again, but for CCCCCCCCCCCCN(c1ccccc1)c1cccc2ccccc12
Result: 116 °C

Q: Again, but for CCOc1nc(C(=O)O)ccc1C#N
Result: 185 to 190 °C

Q: Again, but for CC(=CCc1c(C)c(N=Nc2ccc([N+](=O)[O-])cc2[N+](=O)[O-])c2ccccc2c1O)CCCC(C)CCCC(C)CCCC(C)C (stereo unspecified)
Result: 110 °C

Q: Again, but for CN(C(=O)Nc1ccccc1)c1ccc(Cl)cc1C(=O)c1ccccc1
Result: 158 to 160 °C

----------
Measured melting point, listed per entry.

INSERT INTO measurements (molecule, recorded_endpoint, obs_value) VALUES
  ('NC(=O)c1ccc(-c2ccc(-c3ccc(C(F)(F)F)cc3)o2)cc1', 'melting point', '263 to 264 °C');

Shift focus to the following entry.
Q: Consider the molecule O=C(N1CC1)C(F)(F)C(O)(Cn1cncn1)c1ccc(F)cc1F (configuration not stated) and give its measured melting point.
Result: 87.5 to 88 °C

----------
Measured melting point, listed per entry.
Express your answer in °C, writing the number without its unit.

INSERT INTO assay_data (chemical_structure, recorded_endpoint, obs_value) VALUES
  ('CCN(CC)C1=NN(Nc2ccc3nc(C)cc(N)c3c2)NC(Cl)=C1', 'melting point', 120);

Q: Consider the compound COC(=O)CN1Cc2cc(C(=O)c3cccnc3)ccc2N=C1SC and give its measured melting point.
Result: 114

----------
recorded-endpoint: melting point

INSERT INTO measurements (compound, obs_value) VALUES
  ('Cc1cc(-c2cnn3c(C(F)(F)F)cc(-c4ccc(C(F)(F)F)c(C(F)(F)F)c4)nc23)ccn1', '223 °C'),
  ('COc1ccc2cc(Br)sc2c1', '62 °C'),
  ('O=C(O)COc1ccc2c(-c3ccoc3)noc2c1Cl', '225 to 227 °C'),
  ('CSc1ccc(/C=C/c2nc3ccccc3n2-c2ccccn2)cc1', '140 to 141 °C'),
  ('O=c1[nH]nc(-c2ccccc2O)o1', '198 to 200 °C');

Shift focus to the following entry.
Q: Consider the compound Clc1ccc2[nH]c3c4c(Cl)cccc4nc-3cc2c1 and give its measured melting point.
Result: 221 to 222 °C

----------
Measured melting point, listed per entry.

INSERT INTO assay_data (molecule, obs_value) VALUES
  ('COC(=O)c1cc(C(=O)O)cc(-n2cccc2)c1', '178 to 179 °C'),
  ('C#Cc1cc(Cl)cc2c1OC(C(F)(F)F)C(C(=O)O)=C2 (stereo unspecified)', '186 to 189 °C'),
  ('C=CCOCc1c(CN(C)C[C@@H](O)c2ccccn2)sc2c(=O)c(C(=O)NCc3ccc(Cl)cc3)cn(C)c12', '125 to 127 °C'),
  ('COCC(=O)NNC(=O)N1Cc2ccccc2Oc2ccc(Cl)cc21', '167 to 169 °C'),
  ('CCCOc1ccccc1-c1nc2nc(NCCCS(C)=O)ncc2c(=O)[nH]1 (stereo unspecified)', '188 to 189 °C');

Q: Consider the molecule COc1cc(C=CC(=O)c2ccc(-c3cccs3)s2)ccc1O and give its measured melting point.
Result: 166 to 168 °C

Q: Again, but for COc1cccc(OC)c1Cn1cnc2ccc(O)cc2c1=O
Result: 243 to 245 °C

----------
Measured melting point, listed per entry.

Consider the worked cases shown below.
INSERT INTO assay_data (compound, recorded_endpoint, obs_value) VALUES
  ('Cc1cc(C)n2nc(SCc3ccccc3)nc2c1', 'melting point', '69 to 70 °C'),
  ('O=C(O)c1ccc(-c2ccc(NS(=O)(=O)c3cccnc3)cc2)[nH]c1=O', 'melting point', '> 260 °C'),
  ('O=C1Nc2ccccc2S(=O)c2ccccc21 (stereo not given)', 'melting point', '308 to 310 °C'),
  ('O=C(c1ccc(Cl)cc1)n1cc(CCN=c2sc3ccccc3s2)c2ccccc21', 'melting point', '135 °C');

Shift focus to the following entry.
Q: Consider the compound CN(C)C(=O)Cn1c(-c2cccc(Br)c2)nc2cccnc21 and give its measured melting point.
Result: 144 to 146 °C

Provenance of the data: a melting point compilation (Tetko et al.; mined from patent text by program, amines drawn as free bases though some values may be those of a salt)
